Biological target: T1, EsCas13d, nuclease-dead (Eubacterium siraeum, UniProt B0MS50, R295A;H300A;R849A;H854A)
T1 sequence: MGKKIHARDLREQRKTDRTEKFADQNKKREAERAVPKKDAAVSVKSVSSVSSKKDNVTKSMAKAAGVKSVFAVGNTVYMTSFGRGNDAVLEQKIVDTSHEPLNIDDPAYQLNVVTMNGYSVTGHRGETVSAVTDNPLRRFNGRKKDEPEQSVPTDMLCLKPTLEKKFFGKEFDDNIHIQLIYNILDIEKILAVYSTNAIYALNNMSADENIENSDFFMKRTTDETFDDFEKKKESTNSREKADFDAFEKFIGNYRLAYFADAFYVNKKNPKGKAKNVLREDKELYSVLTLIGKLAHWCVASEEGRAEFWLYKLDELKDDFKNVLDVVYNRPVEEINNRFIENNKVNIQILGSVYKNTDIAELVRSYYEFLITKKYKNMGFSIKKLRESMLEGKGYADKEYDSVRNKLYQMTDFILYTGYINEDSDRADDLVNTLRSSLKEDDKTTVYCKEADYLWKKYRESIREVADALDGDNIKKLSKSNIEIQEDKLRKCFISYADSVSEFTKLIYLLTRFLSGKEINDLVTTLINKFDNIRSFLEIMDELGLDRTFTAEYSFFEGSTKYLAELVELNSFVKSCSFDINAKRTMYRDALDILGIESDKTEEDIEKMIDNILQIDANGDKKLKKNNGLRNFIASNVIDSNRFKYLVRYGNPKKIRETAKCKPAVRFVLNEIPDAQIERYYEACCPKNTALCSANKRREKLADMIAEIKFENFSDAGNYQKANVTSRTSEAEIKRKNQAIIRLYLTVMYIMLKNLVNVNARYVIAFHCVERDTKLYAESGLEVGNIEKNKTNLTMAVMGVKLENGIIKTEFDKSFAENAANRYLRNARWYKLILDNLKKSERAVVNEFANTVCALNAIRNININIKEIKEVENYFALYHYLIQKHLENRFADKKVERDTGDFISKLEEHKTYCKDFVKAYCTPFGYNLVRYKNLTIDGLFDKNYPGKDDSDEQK
Experiment: crRNA (strand 1, pre-loaded); Mg2+; 40 mM Tris-HCl pH 7.5, 150 mM NaCl, 6 mM MgCl2, 1 mM DTT, 0.1% Tween-20, 0.2 mg/ml BSA; 25 C; 10 min per concentration, then washed
Conditions: tags: His6-TwinStrep-SUMO cleaved; N-terminal SNAP kept (SNAP-Surface 488); label: 3' end held by stalled T7 RNA polymerase
Kd reference
A number alone suffices; assume µM.

| binder | reading_unit | Kd |
| --- | --- | --- |
| target 2 MT 5'PFS AGC 3'PFS ACG (mixed) RNA 1: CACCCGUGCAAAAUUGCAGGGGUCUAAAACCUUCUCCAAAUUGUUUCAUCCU RNA 2: GGGAAUGGAUCCACAUCUACGAAUUCAGCAGGAUGAAACAAUUUGGAGAAGACGAGAUCGGAAGAGCACACGU | µM | 0.0071 |

Which Kd is listed for target 1 insC 3' of 22,insG 3' of 20 (mixed) RNA 1: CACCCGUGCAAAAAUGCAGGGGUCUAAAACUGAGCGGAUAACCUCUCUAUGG RNA 2: GGGAAUGGAUCCACAUCUACGAAUUCGUACCCAGUAGAGAGGUUAUCCGCUCACCGAGAUCGGAAGAGCACACGU ?
0.0232

// returns reported Kd for input target 3 insA 3' of 8,insU 3' of 4 (mixed) RNA 1: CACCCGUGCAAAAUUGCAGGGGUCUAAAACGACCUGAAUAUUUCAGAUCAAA RNA 2: GGGAAUGGAUCCACAUCUACGAAUUCGUUUUUGAUCUGAAAUAUAUCAGUGUCUGCAGAUCGGAAGAGCACACGU
0.0218
